meta.source: ChEMBL document CHEMBL1961873

molecular target: Ribosomal protein S6 kinase alpha-2 (Homo sapiens) (UniProt Q15349); settings: at 1 µM;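 further: value is the mean inhibition of RSK3 within GSK PKIS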
Sequence (Q15349 whole entry): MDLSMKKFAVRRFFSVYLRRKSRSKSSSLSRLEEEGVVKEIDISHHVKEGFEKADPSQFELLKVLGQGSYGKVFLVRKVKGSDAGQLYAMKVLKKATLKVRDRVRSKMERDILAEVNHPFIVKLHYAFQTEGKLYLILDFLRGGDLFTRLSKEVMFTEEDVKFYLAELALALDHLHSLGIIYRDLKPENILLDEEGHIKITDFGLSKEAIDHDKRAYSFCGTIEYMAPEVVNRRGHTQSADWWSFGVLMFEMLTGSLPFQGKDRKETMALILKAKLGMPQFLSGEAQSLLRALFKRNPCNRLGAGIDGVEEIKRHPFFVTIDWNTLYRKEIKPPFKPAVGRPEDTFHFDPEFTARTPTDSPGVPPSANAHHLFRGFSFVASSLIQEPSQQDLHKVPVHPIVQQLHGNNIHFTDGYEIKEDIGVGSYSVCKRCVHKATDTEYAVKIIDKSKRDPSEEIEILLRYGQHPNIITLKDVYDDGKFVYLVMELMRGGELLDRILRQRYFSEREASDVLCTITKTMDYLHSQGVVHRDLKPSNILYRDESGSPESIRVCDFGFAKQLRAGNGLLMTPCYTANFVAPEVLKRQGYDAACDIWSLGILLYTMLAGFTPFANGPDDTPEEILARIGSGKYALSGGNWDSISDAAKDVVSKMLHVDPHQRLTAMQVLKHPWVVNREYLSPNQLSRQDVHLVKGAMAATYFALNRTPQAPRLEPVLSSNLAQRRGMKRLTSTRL
quantity.kind: inhibition
Number first, unit second: that is the form wanted.

Sample answers from the record:
test.smiles | quantity.kind | observed
Cn1c(-c2nonc2N)nc2cnccc21 | inhibition | 41.4%
OCCCNc1nccc(-c2c(-c3ccc(F)cc3)nn3cc(C(F)(F)F)ccc23)n1 | inhibition | 2.43%
Cc1ccc(-c2cc3c(NC(=O)C4CC4)ncnc3o2)cc1 | inhibition | 2.3%

Lookup: Note inhibition for the molecule shown: `Cc1cc(O)cc(C)c1/C=C/c1cncc(C(N)=O)c1`
Found: 1.48%

Lookup: Note inhibition for the molecule shown: `Fc1ccc(Nc2nccc(-c3c(-c4ccc(C(F)(F)F)cc4)nn4ncccc34)n2)cc1F`
Found: 2.41%

Lookup: Note inhibition for the molecule shown: `CCS(=O)(=O)c1ccc(OC)c(Nc2ncc(-c3cccc(F)c3)o2)c1`
Found: 5.22%

Lookup: Note inhibition for the molecule shown: `CNC(=O)c1sc(-n2cnc3cc(OC)c(OC)cc32)cc1OCc1ccccc1C(F)(F)F`
Found: 2.3%

Lookup: Note inhibition for the molecule shown: `COC(=O)Nc1nc2cc(Oc3ccc(NC(=O)Nc4ccccc4)cc3)ccc2[nH]1`
Found: 1.89%

Lookup: Note inhibition for the molecule shown: `CS(=O)(=O)CCNCc1ccc(-c2ccc3ncnc(Nc4ccc(OCc5cccc(C(F)(F)F)c5)cc4)c3c2)o1`
Found: 2.69%

Lookup: Note inhibition for the molecule shown: `CNC(=O)c1ncccc1Nc1nc(Nc2cc3c(cc2OC)CCCN3C(=O)CN(C)C)nc2[nH]ccc12`
Found: 7.32%

Lookup: Note inhibition for the molecule shown: `COc1ccccc1-c1cc(/C=C2\C(=O)Nc3ncc(Br)cc32)cc(Br)c1O`
Found: 3.85%

----------
Reported inhibition values are given for each entry in this list.
target: Casein kinase II subunit alpha (Homo sapiens) (UniProt P68400); details: at 1 µM
Sequence (P68400 whole entry, looked up): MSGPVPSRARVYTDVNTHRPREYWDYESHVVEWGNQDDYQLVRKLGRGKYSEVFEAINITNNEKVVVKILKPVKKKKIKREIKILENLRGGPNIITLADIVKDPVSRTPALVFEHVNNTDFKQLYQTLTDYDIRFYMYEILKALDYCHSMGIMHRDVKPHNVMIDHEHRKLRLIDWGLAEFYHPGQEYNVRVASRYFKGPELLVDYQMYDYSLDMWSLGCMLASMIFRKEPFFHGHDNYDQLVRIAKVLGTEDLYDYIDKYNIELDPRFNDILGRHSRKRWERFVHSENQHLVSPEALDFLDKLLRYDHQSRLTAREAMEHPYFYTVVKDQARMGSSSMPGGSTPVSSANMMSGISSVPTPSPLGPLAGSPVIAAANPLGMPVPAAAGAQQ

Sample answers from the record:
test.smiles | observed
CCS(=O)(=O)c1ccc(OC)c(Nc2ncc(-c3cccc(C(C)=O)c3)o2)c1 | 21.6%
Cc1cc(O)cc(C)c1/C=C/c1cncc(C(N)=O)c1 | 1.41%
COc1cc(N2CCN(C(C)C)CC2)ccc1Nc1nc(Nc2cccc3ncccc23)c2cc[nH]c2n1 | 1.8%
O=C1Nc2ccccc2/C1=C1\CCc2cc(O)ccc21 | 9.1%

Lookup: Quote inhibition with test system Casein kinase II subunit alpha (Homo sapiens) (UniProt P68400) for `CC1(C)CC(n2cnc(-c3ccc(F)cc3)c2-c2ccnc(N)n2)CC(C)(C)N1`;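 further: reported value is the mean CK2 inhibition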
Found: 7.38%

----------
molecular target: Serine/threonine-protein kinase SIK2 (Homo sapiens) (UniProt Q9H0K1); conditions: at 1 µM;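 further: mean inhibition of SNF1LK2 (QIK) kinase activity, from the GSK PKIS screening panel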
Sequence (Q9H0K1 whole entry, looked up): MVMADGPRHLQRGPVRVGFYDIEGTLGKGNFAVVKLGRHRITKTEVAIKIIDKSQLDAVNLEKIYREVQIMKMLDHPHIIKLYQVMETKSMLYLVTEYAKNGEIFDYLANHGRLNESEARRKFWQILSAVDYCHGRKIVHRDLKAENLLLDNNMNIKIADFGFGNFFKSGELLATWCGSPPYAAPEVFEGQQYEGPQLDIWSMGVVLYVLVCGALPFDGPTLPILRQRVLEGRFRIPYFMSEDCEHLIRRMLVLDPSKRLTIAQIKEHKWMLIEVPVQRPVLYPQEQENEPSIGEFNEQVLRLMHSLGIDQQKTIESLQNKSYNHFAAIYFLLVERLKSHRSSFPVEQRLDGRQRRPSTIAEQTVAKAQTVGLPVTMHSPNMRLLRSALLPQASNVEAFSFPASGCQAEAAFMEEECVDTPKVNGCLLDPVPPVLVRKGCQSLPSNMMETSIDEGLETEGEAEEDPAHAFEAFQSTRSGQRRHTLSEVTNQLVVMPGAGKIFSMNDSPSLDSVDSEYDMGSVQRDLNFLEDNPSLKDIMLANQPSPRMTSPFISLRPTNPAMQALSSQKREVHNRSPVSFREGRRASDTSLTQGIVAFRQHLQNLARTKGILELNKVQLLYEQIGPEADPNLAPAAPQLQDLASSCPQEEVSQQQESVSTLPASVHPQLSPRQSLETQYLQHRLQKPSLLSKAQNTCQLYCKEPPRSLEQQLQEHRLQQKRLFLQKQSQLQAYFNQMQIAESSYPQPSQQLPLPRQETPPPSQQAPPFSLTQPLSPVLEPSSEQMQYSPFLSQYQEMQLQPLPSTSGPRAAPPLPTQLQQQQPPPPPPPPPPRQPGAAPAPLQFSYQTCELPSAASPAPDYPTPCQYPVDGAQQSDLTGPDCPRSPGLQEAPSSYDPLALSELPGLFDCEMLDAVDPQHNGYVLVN
quantity.kind: inhibition

test.smiles | observed
O=C1Nc2ccccc2/C1=C1\CCc2cc(O)ccc21 | 21%
c1cnn2ncc(-c3ccnc(NCCCN4CCOCC4)n3)c2c1 | 2.87%
COc1cccc(Nc2nccc(-c3cnn4ncccc34)n2)c1 | 13.6%
O=C(O[C@H]1CN[C@H](C#Cc2cc3ncnc(Nc4ccc(OCc5cccc(F)c5)c(Cl)c4)c3s2)C1)N1CCOCC1 | 11.1%
O=C(Nc1n[nH]c2nnc(-c3cccnc3)cc12)C1CC1 | -1.67%
CS(=O)(=O)Nc1ccc(-c2ccc3c(NC(=O)C4CC4)n[nH]c3c2)cc1 | 1.37%
CC1(C)CC(n2cnc(-c3ccc(F)cc3)c2-c2ccnc(N)n2)CC(C)(C)N1 | 1.15%
COc1cc(N2CCN(C(C)C)CC2)ccc1Nc1nc(Nc2cccc3ncccc23)c2cc[nH]c2n1 | 3.12%

Lookup: Note inhibition for the molecule shown: `CNC(=O)c1sc(-n2cnc3cc(OC)c(OC)cc32)cc1OCc1ccccc1C(F)(F)F`
Found: 8.75%

Lookup: Note inhibition for the molecule shown: `c1ccc(-c2n[nH]cc2-c2ccnc(-c3ccc(OCCn4ccnc4)cc3)c2)nc1`
Found: 10%

Lookup: Note inhibition for the molecule shown: `CCN1CCC(C(=O)Nc2n[nH]c3nnc(-c4cccc(F)c4F)cc23)CC1`
Found: -0.5%

----------
target: Cyclin-dependent kinase 4 (Homo sapiens); conditions: at 1 µM
Reported inhibition values are given for each entry in this list.
// units = %; emit number, no label

compound | inhibition (%)
NS(=O)(=O)c1cccc(N/C=C2\C(=O)Nc3ccccc32)c1 | 18.1
COc1ccc(-c2nn3ncccc3c2-c2ccnc(Nc3ccc(F)c(F)c3)n2)cc1 | 1.71
Cc1c2ccc(N(C)c3ccnc(Nc4cccc(S(N)(=O)=O)c4)n3)cc2nn1C | 9.57
N#Cc1ccc2c(-c3ccnc(NC4CC4)n3)c(-c3ccc(F)cc3)nn2c1 | 1.61
NS(=O)(=O)c1ccc(N/N=C2\C(=O)Nc3cccc(CCc4ccncc4)c32)cc1 | 29.4
CC1=C(C(=O)Nc2ccc3[nH]nc(C)c3c2)C(c2ccc(C(F)(F)F)cc2)CC(=O)N1 (stereo unspecified) | 7.29

Lookup: Quote inhibition with test system Cyclin-dependent kinase 4 (Homo sapiens) for `CS(=O)(=O)CCNCc1ccc(-c2ccc3ncnc(Nc4ccc(OCc5cccc(C(F)(F)F)c5)cc4)c3c2)o1`
Found: 2.89

Lookup: Quote inhibition with test system Cyclin-dependent kinase 4 (Homo sapiens) for `COc1ccccc1-c1cc(/C=C2\C(=O)Nc3ncc(Br)cc32)cc(Br)c1O`
Found: 7.62

Lookup: Quote inhibition with test system Cyclin-dependent kinase 4 (Homo sapiens) for `CCn1c(-c2nonc2N)nc2cncc(C(=O)NCCNC)c21`
Found: 3.94

Lookup: Quote inhibition with test system Cyclin-dependent kinase 4 (Homo sapiens) for `Fc1cccc(COc2ccc(Nc3ncncc3C#Cc3ccccc3)cc2Cl)c1`
Found: 2.61

Lookup: Quote inhibition with test system Cyclin-dependent kinase 4 (Homo sapiens) for `COC(=O)Nc1nc2ccc(Oc3ccc(NC(=O)Nc4cc(C(F)(F)F)ccc4F)cc3)cc2s1`
Found: 2.02

Lookup: Quote inhibition with test system Cyclin-dependent kinase 4 (Homo sapiens) for `COc1cc(Nc2ncc(-c3ccccc3)o2)cc(OC)c1`;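 further: enzyme tested as the CDK4–cyclin D complex, with the value reported as mean percent inhibition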
Found: 14.9

----------
target: Misshapen-like kinase 1 (Homo sapiens) (UniProt Q8N4C8); conditions: at 0.1 µM;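 further: mean inhibition value reported, from GSK PKIS kinase profiling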
Sequence (Q8N4C8 whole entry, looked up): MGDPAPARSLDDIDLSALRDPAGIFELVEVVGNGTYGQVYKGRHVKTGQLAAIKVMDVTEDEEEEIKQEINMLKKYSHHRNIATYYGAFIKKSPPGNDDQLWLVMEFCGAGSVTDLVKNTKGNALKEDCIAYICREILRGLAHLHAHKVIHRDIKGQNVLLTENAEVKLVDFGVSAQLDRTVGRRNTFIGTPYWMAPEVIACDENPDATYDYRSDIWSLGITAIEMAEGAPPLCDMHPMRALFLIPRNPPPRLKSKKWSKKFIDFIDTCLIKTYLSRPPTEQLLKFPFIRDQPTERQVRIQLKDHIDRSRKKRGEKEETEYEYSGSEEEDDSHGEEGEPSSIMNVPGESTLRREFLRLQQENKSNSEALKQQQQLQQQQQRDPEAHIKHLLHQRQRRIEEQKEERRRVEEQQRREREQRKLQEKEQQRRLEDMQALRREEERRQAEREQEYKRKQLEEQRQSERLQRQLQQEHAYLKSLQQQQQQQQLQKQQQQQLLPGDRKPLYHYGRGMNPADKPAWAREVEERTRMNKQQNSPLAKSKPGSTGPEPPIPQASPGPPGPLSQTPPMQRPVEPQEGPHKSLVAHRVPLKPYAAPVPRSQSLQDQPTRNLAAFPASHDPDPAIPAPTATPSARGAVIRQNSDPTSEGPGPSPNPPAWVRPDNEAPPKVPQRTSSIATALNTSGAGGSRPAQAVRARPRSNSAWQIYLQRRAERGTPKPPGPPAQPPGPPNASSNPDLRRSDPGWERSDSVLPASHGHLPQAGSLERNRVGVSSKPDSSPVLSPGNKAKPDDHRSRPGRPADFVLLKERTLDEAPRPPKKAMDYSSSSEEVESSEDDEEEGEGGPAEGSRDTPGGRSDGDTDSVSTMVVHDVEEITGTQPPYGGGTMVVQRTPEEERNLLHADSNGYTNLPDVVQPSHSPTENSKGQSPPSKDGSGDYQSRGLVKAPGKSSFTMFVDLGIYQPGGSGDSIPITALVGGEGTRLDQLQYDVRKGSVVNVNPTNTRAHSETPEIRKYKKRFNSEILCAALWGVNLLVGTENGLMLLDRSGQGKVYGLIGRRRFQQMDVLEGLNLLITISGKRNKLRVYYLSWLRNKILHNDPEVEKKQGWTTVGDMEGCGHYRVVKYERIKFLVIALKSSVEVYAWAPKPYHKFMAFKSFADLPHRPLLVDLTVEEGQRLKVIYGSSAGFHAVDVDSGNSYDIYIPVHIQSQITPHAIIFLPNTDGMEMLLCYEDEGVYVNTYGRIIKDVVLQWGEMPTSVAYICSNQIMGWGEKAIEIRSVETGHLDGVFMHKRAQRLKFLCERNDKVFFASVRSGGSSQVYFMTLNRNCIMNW
Give YES when the value for inhibition is at least 5%. Give NO when it is less.

Solved cases below.
test.smiles | category
CS(=O)(=O)CCNCc1ccc(-c2ccc3ncnc(Nc4ccc(OCc5cccc(C(F)(F)F)c5)cc4)c3c2)o1 | YES
CCN1CCC(C(=O)Nc2n[nH]c3nnc(-c4cccc(F)c4F)cc23)CC1 | NO

Lookup: Check this compound for inhibition at or above 5%: `COc1ccc(-c2nn3ncccc3c2-c2ccnc(Nc3ccc(F)c(F)c3)n2)cc1`
Found: YES

Lookup: Check this compound for inhibition at or above 5%: `NS(=O)(=O)c1ccc(N/N=C2\C(=O)Nc3cccc(CCc4ccncc4)c32)cc1`
Found: NO

Lookup: Check this compound for inhibition at or above 5%: `FC(F)(F)CNc1nccc(-c2cnn3ncccc23)n1`
Found: NO

Lookup: Check this compound for inhibition at or above 5%: `CNC(=O)c1cncc(/C=C/c2ccccc2C)c1`
Found: YES

----------
Reported inhibition values are given for each entry in this list.
biological target: Serine/threonine-protein kinase TBK1 (Homo sapiens) (UniProt Q9UHD2); conditions: at 0.1 µM;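 further: values are the mean TBK1 inhibition, taken from the GSK PKIS screening data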
Sequence (Q9UHD2 whole entry): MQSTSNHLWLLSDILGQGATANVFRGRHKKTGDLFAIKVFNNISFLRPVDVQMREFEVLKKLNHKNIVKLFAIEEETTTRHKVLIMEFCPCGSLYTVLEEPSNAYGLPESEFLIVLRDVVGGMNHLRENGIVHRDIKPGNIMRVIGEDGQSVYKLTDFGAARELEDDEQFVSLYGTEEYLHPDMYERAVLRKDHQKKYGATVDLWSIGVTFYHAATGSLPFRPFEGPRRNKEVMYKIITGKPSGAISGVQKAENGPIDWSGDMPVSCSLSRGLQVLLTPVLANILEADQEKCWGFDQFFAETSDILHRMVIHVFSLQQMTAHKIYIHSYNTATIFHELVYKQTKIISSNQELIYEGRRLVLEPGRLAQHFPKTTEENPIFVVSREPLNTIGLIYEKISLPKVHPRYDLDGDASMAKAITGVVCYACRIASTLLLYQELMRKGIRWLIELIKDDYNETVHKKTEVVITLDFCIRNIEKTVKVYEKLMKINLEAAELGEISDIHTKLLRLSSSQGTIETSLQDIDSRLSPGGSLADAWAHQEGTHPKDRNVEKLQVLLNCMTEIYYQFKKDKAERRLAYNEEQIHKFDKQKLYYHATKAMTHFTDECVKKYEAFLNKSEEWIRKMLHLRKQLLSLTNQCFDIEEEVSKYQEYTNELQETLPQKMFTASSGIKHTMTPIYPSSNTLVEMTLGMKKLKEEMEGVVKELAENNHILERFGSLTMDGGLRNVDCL
// units = %; emit number, no label

Sample answers from the record:
test.smiles | quantity.kind | observed
NS(=O)(=O)c1ccc(N/N=C2\C(=O)Nc3cccc(CCc4ccncc4)c32)cc1 | inhibition | 1.99
CC(C)c1ccc(-c2cc(-c3c[nH]nc3-c3ccccn3)ccn2)cc1 | inhibition | 0.97
COc1ccccc1-c1cc(/C=C2\C(=O)Nc3ncc(Br)cc32)cc(Br)c1O | inhibition | 0.53
COc1cccc(Nc2nccc(-c3cnn4ncccc34)n2)c1 | inhibition | 4.06
N#Cc1ccc2c(-c3ccnc(NC4CC4)n3)c(-c3ccc(F)cc3)nn2c1 | inhibition | 1.15

Lookup: Note inhibition for the molecule shown: `Fc1ccc(Nc2nccc(-c3c(-c4ccc(C(F)(F)F)cc4)nn4ncccc34)n2)cc1F`
Found: -0.07

Lookup: Note inhibition for the molecule shown: `COC(=O)Nc1nc2ccc(Oc3ccc(NC(=O)Nc4cc(C(F)(F)F)ccc4F)cc3)cc2s1`
Found: -0.35

Lookup: Note inhibition for the molecule shown: `CS(=O)(=O)CCNCc1ccc(-c2ccc3ncnc(Nc4ccc(OCc5cccc(C(F)(F)F)c5)cc4)c3c2)o1`
Found: 3.15

Lookup: Note inhibition for the molecule shown: `CS(=O)(=O)Nc1ccc(-c2cc(-c3ccccc3)cc(C(N)=O)c2N)cc1`
Found: 1.82

Lookup: Note inhibition for the molecule shown: `CNC(=O)c1ncccc1Nc1nc(Nc2cc3c(cc2OC)CCCN3C(=O)CN(C)C)nc2[nH]ccc12`
Found: 5.66

----------
Reported inhibition values are given for each entry in this list.
target: RAC-beta serine/threonine-protein kinase (Homo sapiens); details: at 0.1 µM;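 further: reported figure is the mean percent inhibition of AKT2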
// units = %; emit number, no label

Sample answers from the record:
molecule | reading.unit | inhibition
c1cnn2ncc(-c3ccnc(NCCCN4CCOCC4)n3)c2c1 | % | 1.29
NS(=O)(=O)c1ccc(N/N=C2\C(=O)Nc3ccc(C(=O)NCc4ccncc4)cc32)cc1 | % | 2.42
CS(=O)(=O)CCNCc1ccc(-c2ccc3ncnc(Nc4ccc(OCc5ccccc5)cc4)c3c2)o1 | % | 0.5
O=C(Nc1n[nH]c2nnc(-c3cccnc3)cc12)C1CC1 | % | -0.56
N#Cc1cccc(Nc2ncc(-c3ccccc3)o2)c1 | % | 0.15
CCN1CCC(C(=O)Nc2n[nH]c3nnc(-c4cccc(F)c4F)cc23)CC1 | % | -1.1
CS(=O)(=O)CCNCc1ccoc1-c1ccc2ncnc(Nc3ccc(OCc4ccccc4)cc3)c2c1 | % | -0.24
Fc1ccc(Nc2nccc(-c3c(-c4ccc(C(F)(F)F)cc4)nn4ncccc34)n2)cc1F | % | 0.91

Lookup: Note inhibition for the molecule shown: `COc1ccc(-c2nn3ncccc3c2-c2ccnc(Nc3ccc(F)c(F)c3)n2)cc1`
Found: 1.56

Lookup: Note inhibition for the molecule shown: `CN(c1ccc(NC(=O)NCCN2CCOCC2)cc1)c1ccnc(Nc2ccc(CS(C)(=O)=O)cc2)n1`
Found: 0.78

Lookup: Note inhibition for the molecule shown: `COc1cc2c(cc1Nc1nc(Nc3cccc(F)c3C(N)=O)c3cc[nH]c3n1)N(C(=O)CN1CCN(C(C)C)CC1)CC2`
Found: 1.31

Lookup: Note inhibition for the molecule shown: `Cc1cc(O)cc(C)c1/C=C/c1cncc(C(N)=O)c1`
Found: 1.8

Lookup: Note inhibition for the molecule shown: CC1=C(C(=O)Nc2ccc3[nH]nc(C)c3c2)C(c2ccc(C(F)(F)F)cc2)CC(=O)N1 (centres undefined)
Found: 0.84

Lookup: Note inhibition for the molecule shown: `c1ccc(-c2n[nH]cc2-c2ccnc(-c3ccc(OCCn4ccnc4)cc3)c2)nc1`
Found: -0.98

Lookup: Note inhibition for the molecule shown: CC1=C(C(=O)Nc2ccc3[nH]ncc3c2)C(c2ccc(F)cc2)N=C(c2ccc(C(F)(F)F)nc2)N1 (centres undefined)
Found: 1.39
